Cited source for all entries: patent US5646316A

- targetOfAssay: gelatinase (72 (Kd) (Homo sapiens, UniProt P08253))
- Sequence (P08253 110-660): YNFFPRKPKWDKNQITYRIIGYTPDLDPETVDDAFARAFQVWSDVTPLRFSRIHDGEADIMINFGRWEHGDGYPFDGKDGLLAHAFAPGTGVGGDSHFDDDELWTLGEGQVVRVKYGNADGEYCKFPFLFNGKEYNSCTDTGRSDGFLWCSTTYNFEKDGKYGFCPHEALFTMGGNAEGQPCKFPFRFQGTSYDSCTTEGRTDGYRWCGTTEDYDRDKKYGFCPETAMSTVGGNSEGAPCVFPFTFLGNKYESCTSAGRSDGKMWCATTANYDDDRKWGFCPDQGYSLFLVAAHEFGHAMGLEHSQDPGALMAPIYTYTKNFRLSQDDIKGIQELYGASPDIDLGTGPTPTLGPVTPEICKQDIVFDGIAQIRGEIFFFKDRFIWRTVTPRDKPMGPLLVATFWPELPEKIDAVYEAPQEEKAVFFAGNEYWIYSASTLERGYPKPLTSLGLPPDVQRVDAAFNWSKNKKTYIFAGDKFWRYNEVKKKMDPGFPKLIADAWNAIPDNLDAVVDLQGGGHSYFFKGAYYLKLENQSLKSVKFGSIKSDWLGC
- assayProcedure: Assay of Gelatinase Inhibition Activity (72 Kd gelatinase)
- Type: biochemical
- measurementParameters: at 10 μM of compound; 60 minutes at 37° C.; read-out: percent inhibition of gelatinase
Think of 40% as a floor: if inhibition at 10 µM stands on it or above, it is met; beneath it, not met.

| compound | groupLabel |
| --- | --- |
| CCOC(=O)[C@H](CS)NC(=O)[C@H](Cc1ccccc1)NC(=O)CC[C@@H](C)[C@H]1CC[C@H]2[C@@H]3CC[C@@H]4C[C@H](O)CC[C@]4(C)[C@H]3CC[C@]12C [Compound 19] | met |
| C[C@H](CCC(=O)NOCc1ccccc1)[C@H]1CC[C@H]2[C@@H]3CC[C@@H]4C[C@H](O)CC[C@]4(C)[C@H]3CC[C@]12C [Compound 11, Lithocholyl-O-Benzylhydroxamate] | not met |
| C[C@H](CCC(=O)N[C@@H](Cc1ccccc1)C(=O)NC1CCSC1=O)[C@H]1CC[C@H]2[C@@H]3CC[C@@H]4C[C@H](O)CC[C@]4(C)[C@H]3CC[C@]12C (stereo partly shown) [Compound 20] | not met |
| CC(C)C[C@H](NC(=O)CC[C@@H](C)[C@H]1CC[C@H]2[C@@H]3[C@H](O)C[C@@H]4C[C@H](O)CC[C@]4(C)[C@H]3CC[C@]12C)C(=O)NO [Compound 10] | not met |
| C[C@H](CCC(=O)N[C@@H](Cc1ccccc1)C(=O)NO)[C@H]1CC[C@H]2[C@@H]3[C@H](O)C[C@@H]4C[C@H](O)CC[C@]4(C)[C@H]3CC[C@]12C [Compound 16] | not met |
| C[C@H](CCC(=O)N[C@@H](Cc1ccccc1)C(=O)NO)[C@H]1CC[C@H]2[C@@H]3CC[C@@H]4C[C@H](O)CC[C@]4(C)[C@H]3CC[C@]12C [Compound 15] | met |

* * *

- Test system: collagenase
- assayProcedure: Assay of Collagenase Inhibition Activity
- Assay type: biochemical
- measurementParameters: at 10 μM of compound; 45 minutes at 37° C.
Label y when percent inhibition of collagenase >= 20%; otherwise n.

| compound | groupLabel |
| --- | --- |
| C[C@H](CCC(=O)NOCc1ccccc1)[C@H]1CC[C@H]2[C@@H]3[C@H](O)C[C@@H]4C[C@H](O)CC[C@]4(C)[C@H]3CC[C@]12C [Compound 12, Chenodeoxycholyl-O-Benzylhyroxamate] | y |
| C[C@H](CCC(=O)NCCC[N+](C)(C)CCCS(=O)(=O)[O-])[C@H]1CC[C@H]2[C@@H]3[C@H](O)C[C@@H]4C[C@H](O)CC[C@]4(C)[C@H]3C[C@H](O)[C@]12C [Compound 8, reference compound] | y |
| C[C@H](CCC(=O)NOCc1ccccc1)[C@H]1CC[C@H]2[C@@H]3CC[C@@H]4C[C@H](O)CC[C@]4(C)[C@H]3CC[C@]12C [Compound 11, Lithocholyl-O-Benzylhydroxamate] | n |
| CCOC(=O)[C@H](CS)NC(=O)[C@H](Cc1ccccc1)NC(=O)CC[C@@H](C)[C@H]1CC[C@H]2[C@@H]3CC[C@@H]4C[C@H](O)CC[C@]4(C)[C@H]3CC[C@]12C [Compound 19] | y |
| CC(C)C[C@H](NC(=O)CC[C@@H](C)[C@H]1CC[C@H]2[C@@H]3CC[C@@H]4C[C@H](O)CC[C@]4(C)[C@H]3CC[C@]12C)C(=O)NO [Compound 9, Lithocholyl-(L)-Leucine Hydroxamic Acid] | y |
| CC(C)C[C@H](NC(=O)CC[C@@H](C)[C@H]1CC[C@H]2[C@@H]3[C@H](O)C[C@@H]4C[C@H](O)CC[C@]4(C)[C@H]3CC[C@]12C)C(=O)NO [Compound 10] | n |
| C[C@H](CCC(=O)O)[C@H]1CC[C@H]2[C@@H]3[C@H](O)C[C@@H]4C[C@H](O)CC[C@]4(C)[C@H]3CC[C@]12C [Compound 6, Chenodeoxycholic acid, reference compound] | n |
| C[C@H](CCC(=O)N[C@@H](Cc1c[nH]c2ccccc12)C(=O)NO)[C@H]1CC[C@H]2[C@@H]3CC[C@@H]4C[C@H](O)CC[C@]4(C)[C@H]3CC[C@]12C [Compound 18] | y |
| C[C@H](CCC(=O)NO)[C@H]1CC[C@H]2[C@@H]3[C@H](O)C[C@@H]4C[C@H](O)CC[C@]4(C)[C@H]3CC[C@]12C [Compound 14, Chenodeoxycholyhydroxamic Acid] | n |
| C[C@H](CCC(=O)NO)[C@H]1CC[C@H]2[C@@H]3CC[C@@H]4C[C@H](O)CC[C@]4(C)[C@H]3CC[C@]12C [Compound 13, Lithocholylhydroxamic Acid] | y |
